These measurements were taken from patent US20240067748A1.

Target: T1, monkey Trop2 on CHO-K1 cells (monkey, UniProt A0A2K5UE71 27-323)
T1 construct: also called CHO-K1/monkey Trop2
T1 sequence: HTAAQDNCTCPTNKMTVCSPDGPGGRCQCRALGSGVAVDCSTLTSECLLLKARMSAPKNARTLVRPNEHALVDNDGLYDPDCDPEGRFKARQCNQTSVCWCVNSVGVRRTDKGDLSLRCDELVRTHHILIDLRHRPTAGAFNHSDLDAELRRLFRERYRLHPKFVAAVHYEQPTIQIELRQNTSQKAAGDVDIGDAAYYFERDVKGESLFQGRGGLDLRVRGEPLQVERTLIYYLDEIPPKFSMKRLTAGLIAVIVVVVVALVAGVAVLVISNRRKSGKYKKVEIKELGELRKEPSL
Assay: flow cytometry on CHO-K1/monkey Trop2 cells
readout-type: Maximum MFI value (MFI)
Report only the number, with the unit MFI understood.

Data request: Any idea what Maximum MFI value was measured for PR001166 (antibody, human IgG1, kappa, V domains shown, fully human IgG1/kappa; also called antibody No. (27)) VH: QVQLQESGPGLVKPSETLSLTCAVSGYSISSGYFWAWIRQPPGKGLEWIGSIYHSGRTHYNPSLKSRVIISLDTSKNQFSLKLRSVTAADSAVYYCAREGYASGSYYWGQGTLVTVSS VL: EIVMTQSPATLSVSPGERATLSCRSSQSVNNYLAWFQQKPGQAPRLLIYDSSTRATGIPARFSGSGSGTEFTLTISSLQSEDFAFYFCQQYENWPLTFGGGTKVEIKR ?
Data returned: 51500
